- Procedure summary: qHTS for activators of dead-cell proteases activity screened against the NCATS CANVASS Library (AID 1347392);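 note: luminescence from protease leaking out of membrane-damaged cells cleaving impermeant substrate; rising signal means more cytotoxicity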
- Measurement setup: HepG2 cytotoxicity, dead-cell protease luminescence, 5 h; series mostly up to 46.1 µM
Inconclusive results are not listed. Calls of active or inactive are those of the source. Calls come from the whole dose curve; as a rule, active = well fitted curve in the direction sought with a large enough effect; inconclusive = small, poorly fitted or top-dose-only effect, or another doubt; inactive = no such curve, though single readings can be large or run the other way. Numbered stars: 1 amine (or outer) side, 2 acyl side, 3 side chain; on linkers, the order of the positions; unused ones are H or OH. Square brackets hold non-standard residues; d marks the D form. Peptide text beside a SMILES is read from it. * marks the point of attachment. ξ: configuration not given here. X4 = O=C(C1CC2(c3ccc(O)cc3)c3ccccc3NC2N1[*:1])[*:2]; ξW = NC(Cc1c[nH]c2ccccc12)C(=O)O; ξY = NC(Cc1ccc(O)cc1)C(=O)O; Octanoyl = CCCCCCCC(=O)*
Labels: 1.0 = active, 0.0 = inactive

INSERT INTO assay_data (molecule, qualitative_label) VALUES
  ('C=C[C@]1(C)CC[C@@H]([C@H](C)C(=O)/C=C/C(C)C)O1', 0.0),
  ('O=C(O)CC1OCc2c(O)cccc21 (configuration not stated)', 0.0),
  ('O=Cc1ccc2n1C[C@@]1(C[C@H](O)[C@H](O)CO1)OC2', 0.0),
  ('Oc1ccc(C2c3c(O)cc(O)cc3[C@@H]3C(c4ccc(O)cc4)c4c(O)cc(O)cc4[C@H]23)cc1 (some centres not stated)', 0.0),
  ('CC12C[C@]3(O)O[C@@H](O1)[C@]1(COC(=O)c4ccccc4)[C@@H]3CC21OC1OC(CO)C(O)C(O)C1O (some centres not stated)', 0.0),
  ('O=C(O)Cc1c[nH]c2ccccc12', 0.0),
  ('C1=C2CCCN[C@@H]2[C@@H]2CCN3CCCC[C@@H]3[C@H](C1)C2', 0.0),
  ('CS/C=C/C(N)=O', 0.0),
  ('C=C(C)CC[C@H](Cc1c(O)cc(O)c2c1O[C@H](c1ccc(O)cc1O)CC2=O)C(=C)C', 0.0),
  ('Cc1cc(O)cc2oc(C[C@H](C)O)cc(=O)c12', 0.0),
  ('CCCCCCCC(=O)N[C@@H](CC(C)C)C(=O)N[C@H](C=O)CCC(=O)O (Octanoyl-Leu-Glu-aldehyde)', 0.0),
  ('CC[C@@H]1C[C@@]2(CC)OC(=O)[C@@]3(CC)OC(=O)[C@@H]1[C@@H]23', 0.0),
  ('C=C(NC(=O)c1csc(-c2nc3c(cc2O)-c2nc(cs2)C(=O)NC(C(C)O)C(=O)N/C(=C(\C)O)c2nc(cs2)C(=O)NC2c4nc(cs4)C(=O)NC(COC(=O)c4c5c6c(cccc6n4O)COC(=O)[C@@H](OC4C[C@](C)(O)[C@H](N(C)C)[C@H](C)O4)C2OC5)c2nc-3cs2)n1)C(N)=O (some centres not stated)', 0.0),
  ('CC(O)/C=C/C1(O)C(C)(C)CC(O)CC1(C)O (configuration not stated)', 0.0),
  ('C[C@@H]1O[C@@H](O[C@@H]2[C@@H](O)[C@H](O[C@@H]3[C@@H](O)[C@@H](O)C(O[C@H]4[C@H](OC(=O)[C@]56CCC(C)(C)C[C@H]5C5=CCC7[C@@]8(C)C[C@H](O)[C@H](O[C@@H]9C[C@H](CO)[C@@H](O)[C@H](O)[C@H]9O)[C@@](C)(CO)C8[C@H](O)C[C@@]7(C)[C@]5(C)CC6)OC[C@H](O)[C@@H]4O)O[C@H]3C)OC[C@H]2O)[C@H](O)[C@H](O)[C@H]1O (some centres not stated)', 0.0),
  ('CCC1=C2CCCN3C(=O)O[C@H]([C@H]1OC(C)=O)[C@H]23', 0.0),
  ('CC1(C)CCC[C@]2(C)[C@@H]1CC[C@@]13C[C@@H](CC[C@H]12)C(C)(O)C3 (some centres not stated)', 0.0),
  ('CN1C(=O)[C@]23SS[C@@]1(C)C(=O)N2[C@H]1Nc2ccccc2[C@]1(c1c[nH]c2ccccc12)[C@@H]3O', 0.0),
  ('COc1ccc2cc(NC(=O)C3=NO[C@H]4[C@H](O)C=C[C@@H](Cl)[C@@]4(O)C3)c(=O)oc2c1OC', 0.0),
  ('CCCCCCCCCCCCCCC[C@H](O)C[C@@H](O)C[C@@H](O)C[C@@H](O)C[C@@H](O)C[C@H]1CC=CC(=O)O1', 1.0),
  ('COc1c(O)cc2oc(-c3ccccc3)cc(=O)c2c1O', 0.0),
  ('C=CC(C)(C)C(=O)[C@@H](C)[C@@H]1CC[C@](C)(C=C)O1', 0.0),
  ('COc1ccc(CCCc2cc(O)c(OC)c(O)c2)c(O)c1O', 0.0),
  ('CC(=O)O[C@H]1CC[C@@]2(C)C(CC[C@]3(C)C2CC=C2C4CC(C)(C)CC[C@]4(C)CC[C@]23C)C1(C)C (some centres not stated)', 0.0),
  ('C=C1C[C@@]23C=CC(=O)[C@@](C)(CCCC(C)C(=O)O)[C@@H]2C[C@@H]1CC3 (some centres not stated)', 0.0),
  ('O=c1cc(-c2ccc(O)cc2)oc2c([C@@H]3OC(CO)[C@H](O)[C@@H](O)[C@H]3O)c(O)cc(O)c12 (some centres not stated)', 0.0),
  ('C/C=C/C=C/C1(O)C2C=C3C(=O)CC45C(=O)C(O)=C(C)C(=O)C4C1C1(C(=O)C(O)=C(C)C(=O)C351)C2C (configuration not stated)', 0.0),
  ('C[C@@H]1C[C@H]2C[C@]3(CCCCN3C)[C@@H]3C[C@H]2[C@H](C1)N(C)C3', 0.0),
  ('CC[C@H](C)[C@H](NC(=O)C(Cc1ccc(O)cc1)NC(=O)C(Cc1c[nH]c2ccccc12)NC(=O)[C@H](C)N)C(=O)N1C(C(=O)NC(Cc2ccc(O)cc2)C(=O)O)CC2(c3ccc(O)cc3)c3ccccc3NC12 (some centres not stated) (H-A[ξW][ξY]I[X4][ξY]-OH)', 0.0),
  ('CC(C)(Br)[C@@H](Cl)C[C@H](Br)[C@](C)(Cl)/C=C/Br', 0.0),
  ('O=C(OC1Cc2c(O)cc(O)cc2OC1c1cc(O)c(O)c(O)c1)c1cc(O)c(O)c(O)c1 (configuration not stated)', 0.0),
  ('C/C(=C\[C@H](C)C(=O)CCCC1CC(=O)NC(=O)C1)C(O)[C@@H](C)[C@H](O)C/C=C/CC/C=C/C(=O)O (some centres not stated)', 0.0);
